- Test system: Mus musculus
- assay.overview: Acute toxicity in Swiss albino mouse assessed as effect on WBC count at 300 mg/kg, po after 7 days (reference value: 7.47 +/- 1.61 10^3/mm3)
- Format: organism-based
- condition.label: in vivo, 168 h
parameter: Activity

Q. # value lookup — system Mus musculus, readout Activity, item `COc1ccc2c(c1)nc(-c1ccccc1OC)n2Cc1ccccc1OC`
A. 5.67 10^3/mm3

====

- Tested on: Mus musculus
- assay.overview: Acute toxicity in Swiss albino mouse assessed as effect on WBC count at 1000 mg/kg, po after 7 days (reference value: 7.47 +/- 1.61 10^3/mm3)
- Assay type: organism-based
- condition.label: in vivo, 168 h
parameter: Activity

Q. Given `COc1ccc2c(c1)nc(-c1ccccc1OC)n2Cc1ccccc1OC` , state its recorded Activity.
A. 6.67 10^3/mm3

====

- Test system: Mus musculus
- assay.overview: Acute toxicity in Swiss albino mouse assessed as effect on RBC count at 300 mg/kg, po after 7 days (reference value: 7.61 +/- 0.54 10^6/mm3)
- Assay type: organism-based
- condition.label: in vivo, 168 h
parameter: Activity

Q. // Activity lookup, key: `COc1ccc2c(c1)nc(-c1ccccc1OC)n2Cc1ccccc1OC`
A. 6.87 10^6/mm3

====

- Tested on: Mus musculus
- assay.overview: Acute toxicity in Swiss albino mouse assessed as effect on WBC count at 50 mg/kg, po after 7 days (reference value: 7.47 +/- 1.61 10^3/mm3)
- Format: organism-based
- condition.label: in vivo, 168 h
parameter: Activity

Q. Item: `COc1ccc2c(c1)nc(-c1ccccc1OC)n2Cc1ccccc1OC` Test system: Mus musculus Read-out: Activity Value: ?
A. 6.33 10^3/mm3
